# System: MALME-3M melanoma
# ASSAY_INFO: NCI-60 one-dose screen, 48 h
# APPLIED_CONDITIONS: 10 µM unless noted
# Method: Cells are grown in 96 well plates and exposed to the test compound for 48 hours. Compounds are tested at a single concentration, which is 10^-5 M for most compounds. The reported endpoint is percent growth (GI% or GIPRCNT), where numbers from 0 - 100% represent growth inhibition, and numbers from -100% - 0 represent cell death. For example, a value of 40 represents 60% growth inhibition. A value of 0 means no net growth occurred over the course of the experiment. […]
The panel holds about 83,000 compounds, 20% with a hit somewhere; the sample as a whole holds those more often. Calls of active or inactive are those of the source. Rule for the calls: active = growth percent below 10; inactive = the rest.
Just give me one of these, please: yes (1) = active, no (0) = inactive

Example cases with answers are listed next.
INSERT INTO assay_data (compound, tested_on, category_label) VALUES
  ('Cn1cc(-c2csc(-c3ccccc3)n2)c2cccnc21', 'MALME-3M melanoma', 'yes (1)'),
  ('CC(=O)N1N=C(c2ccc(Nc3nc(Nc4ccc(F)cc4)nc(Nc4ccc(F)cc4)n3)cc2)CC1c1cccc([N+](=O)[O-])c1 (centres undefined)', 'MALME-3M melanoma', 'no (0)'),
  ('O=C(Nc1ccc(-n2cc(-c3ccncc3)c(-c3ccc(Cl)c(O)c3)n2)cc1)N1CCOCC1', 'MALME-3M melanoma', 'no (0)'),
  ('Cc1ccc(N(C(=O)CCc2c[nH]c3ccccc23)[C@H](C(=O)Nc2ccc(Cl)cc2)c2cccc([N+](=O)[O-])c2)cc1', 'MALME-3M melanoma', 'no (0)'),
  ('O=C1OC(c2nc3ccccc3s2)=C/C1=C\c1ccc(O)cc1', 'MALME-3M melanoma', 'no (0)');

Identify the outcome logged in this assay for the compound shown: Cc1c(C)c2c(c(C)c1OCC(=O)O)CC[C@@](C)(CCC[C@@H](C)CCC[C@@H](C)CCCC(C)C)O2 yes (1)

Recorded test call requested for CS(=O)(=O)c1ccc(Nc2nc(N[C@H]3CCCC[C@H]3N)nc3cc[nH]c(=O)c23)cc1 yes (1)

Tell me the assay call for Nc1n[nH]c2cc(F)c([C@@H]3Nc4c(F)cc5[nH]ncc5c4[C@H]4C5CCC(C5)[C@@H]34)cc12 (some centres undefined) please. no (0)

Fill in: this test's call for COc1ccc(/C=C/c2c(C(=O)/C=C/c3ccc(F)cc3)c(C)nc3ccccc23)cc1 is ___ no (0)

---

# Test system: NCI-H460 lung
# ASSAY_INFO: NCI-60 one-dose screen, 48 h
# APPLIED_CONDITIONS: 10 µM unless noted
The panel holds about 83,000 compounds, 20% with a hit somewhere; the sample as a whole holds those more often. Activity calls are given as the source filed them. Rule for the calls: active = growth percent below 10; inactive = the rest.
Classes to choose from: t for active, f for inactive

Example entries and their recorded answers appear below.
INSERT INTO results (compound, category_label) VALUES
  ('O=C(/C=C/c1ccco1)c1ccc(Nc2nc(Nc3ccc(F)cc3)nc(Nc3ccc(Cl)cc3)n2)cc1', 'f'),
  ('CNC(=O)NCC1OC(n2cnc3c(NC(=O)Nc4ccccc4)ncnc32)C(O[Si](C)(C)C(C)(C)C)C1CC(=O)N(C)OC (centres undefined)', 'f'),
  ('Cc1nn(-c2ccccc2)c(Cl)c1/C=C(/NC(=O)c1ccccc1)c1nc2ccccc2[nH]1', 'f'),
  ('Cc1cccc(NC(=O)N/C(N)=N/c2nc(C)c(C)s2)c1', 'f'),
  ('Cc1c(C(=O)NC(Cc2ccccc2)C(O)C(=O)NCc2ccc(F)cc2)[nH]c2ccccc2c1=O (centres undefined)', 'f'),
  ('Cc1cc(=O)oc2c1ccc1oc(C#N)c(C)c12', 'f'),
  ('O=C(O)CN1C(=O)CCC1=O', 'f'),
  ('C=C(C)[C@@H]1CC[C@]2(C)[C@H](CC=C3[C@@H]4CC(C)(C)CC[C@]4(C(N)=O)CC[C@]32C)[C@@]1(C)CCC#N', 'f'),
  ('O=C(Nc1ccc(-n2cc(-c3ccncc3)c(-c3ccc(Cl)c(O)c3)n2)cc1)N1CCOCC1', 'f'),
  ('COc1cccc(-c2nc3sccn3c2-c2ccnc(NCCNS(=O)(=O)c3ccc(C(F)(F)F)cc3)c2)c1', 'f');

Given Cc1cc(NCc2cc(Nc3ccnc4cc(Cl)ccc34)ccc2F)nc(N2CCSCC2)n1 , state the outcome it received in this test. t

Hi, do you know how COc1ccc(C2C(c3nn[nH]n3)=C(N)Oc3c2ccc2ccccc32)cc1 (centres undefined) came out in this test? f

---

# Test system: PC-3 prostate
# ASSAY_INFO: NCI-60 one-dose screen, 48 h (100 = growth as untreated, 0 = no growth, -100 = all killed)
# APPLIED_CONDITIONS: 10 µM unless noted
The panel holds about 83,000 compounds, 20% with a hit somewhere; the sample as a whole holds those more often.
# Lookup of reported growth keyed by entry
Give the number; % is assumed, so skip it.

Need growth of COC(=O)[C@]12CC[C@@H](C)[C@H](C)[C@@H]1C1=CC[C@@H]3[C@@]4(C)C(C=O)=C[C@@](C)(COC(C)=O)C4=CC[C@@]3(C)[C@]1(C)CC2 , thanks. 12.7

Looking for the measured growth of O=C(/C=C/c1cccc(O)c1)c1cccc(-n2cc(-c3ccc4ccccc4c3)[nH]c2=O)c1 , can you help? 5.01

GET /values?readout=growth&item= COC(=O)[C@]12CC[C@@H](C)[C@H](C)[C@@H]1C1=CC[C@@H]3[C@@]4(C)C(C=O)=C[C@@](C)(COC(C)=O)[C@@H]4[C@H](O)C[C@@]3(C)[C@]1(C)CC2 8.44

---

# Tested on: T-47D breast
# ASSAY_INFO: NCI-60 one-dose screen, 48 h
# APPLIED_CONDITIONS: 10 µM unless noted
About 83,000 compounds went through this panel and 20% of them were active in at least one assay; those are over-represented in the sample as a whole. Activity calls are given as the source filed them. Rule for the calls: active = growth percent below 10; inactive = the rest.
Tick one outcome: active, inactive

Some solved entries appear below for comparison.
INSERT INTO results (compound, tested_on, category_label) VALUES
  ('CC1OC(O[C@H]2/C=C/C=C/C=C/C=C/C=C/C=C/C=C/[C@H](C)[C@@H](O)[C@@H](C)[C@H](C)OC(=O)CC(O)CC(O)CCC(O)C(O)CC(O)C[C@]3(O)C[C@H](O)C(C(=O)O)C(C2)O3)C(O)[C@H](N)C1O (some centres not stated)', 'T-47D breast', 'inactive'),
  ('O=C(Nc1cccc2c(O)c(N=Nc3ccc(S(=O)(=O)Nc4nccs4)cc3)cc(N=Nc3ccc(S(=O)(=O)Nc4nccs4)cc3)c12)C(Cl)Cl', 'T-47D breast', 'inactive'),
  ('O=C(Nc1ccc(Cl)cc1)Nc1ccc(Cl)c(C(F)(F)F)c1', 'T-47D breast', 'active'),
  ('CCCCCCCC/C=C\CCCCCCCCOc1ccccc1CC(=O)NCC[N+](C)(C)C', 'T-47D breast', 'inactive');

Check the results log: what was the call for COC(=O)[C@]12CC[C@@H](C)[C@H](C)[C@@H]1C1=CC[C@@H]3[C@@]4(C)C(C=O)=C[C@@](C)(COC(=O)/C=C/c5ccccc5)[C@@H]4[C@H](O)C[C@@]3(C)[C@]1(C)CC2 ? active

// return assay outcome for O=c1ssc(Cl)c1-c1ccccc1 inactive

How was COC(=O)c1c2c(c(C)[n+]([O-])c1C)C(=O)C(NCc1ccc(F)c(Cl)c1)=CC2=O classified in this test? active

For COC(=O)[C@]12CC[C@@H](C)[C@H](C)[C@@H]1C1=CC[C@@H]3[C@@]4(C)C(C=O)=C[C@@](C)(COC(C)=O)[C@@H]4[C@H](O)C[C@@]3(C)[C@]1(C)CC2 , which call appears in the assay record? active

Name the outcome recorded for COc1cccc2c1C(=O)c1c(O)c3c(c(O)c1C2=O)CC(O)(/C(C)=N/NC(=O)CCCCC(=O)N/N=C(\C)C1(O)Cc2c(O)c4c(c(O)c2C(OC2CC(N)C(O)C(C)O2)C1)C(=O)c1c(OC)cccc1C4=O)CC3OC1CC(N)C(O)C(C)O1 (configuration not stated) in the assay. active

Any idea what this test logged for CC1(C)CC(=O)CC2(C1)N=C(N)Nc1nc3ccccc3n12 (configuration not stated) ? inactive

Which result was noted for this compound in the test: COC(=O)c1c2c(c[n+]([O-])c1C)C(=O)C=CC2=O active

I would be grateful if you could indicate the recorded call for COc1ccc(-c2nc(SCC(=O)Nc3nc(-c4ccccc4)cs3)[nH]c(=O)c2C#N)cc1 . inactive

# fetch the recorded call for N#C/C(=C/C=C/c1cccc(Cl)c1)S(=O)c1ccccc1 (configuration not stated) here active

Hey, what did the test say about COc1ccc(OC)c2c1[nH]c(=O)c1c3ncccc3cn21 ? inactive

Ref: PubChem BioAssay (NCI)
